- System: NHDF (Normal Human Dermal Fibroblast cells)
- Protocol Summary: Cytotoxicity, CCK-8 cell viability assay (safety on normal cells)
- Format: cell-based
- Test Conditions: CCK-8 assay, incubation time 24 h, mean ± SD (n = 3), read-out: Activity IC50, NHDF
pIC50: −log10 of the molar value.

[
  {
    "Molecule": "C=C(C)[C@@H]1CC[C@]2(COC(=O)CCC(=O)OCCC[P+](c3ccccc3)(c3ccccc3)c3ccccc3)CC[C@]3(C)C(CCC4[C@@]5(C)CC[C@H](OC(C)=O)C(C)(C)C5CC[C@]43C)C12 (some centres unmarked)",
    "System Tested": "NHDF (Normal Human Dermal Fibroblast cells)",
    "Operator": "=",
    "pIC50": 5.01
  },
  {
    "Molecule": "C=C(C)[C@@H]1CC[C@]2(COC(=O)CCC(=O)OCCCCC[P+](c3ccccc3)(c3ccccc3)c3ccccc3)CC[C@]3(C)C(CCC4[C@@]5(C)CC[C@H](OC(C)=O)C(C)(C)C5CC[C@]43C)C12 (some centres unmarked)",
    "System Tested": "NHDF (Normal Human Dermal Fibroblast cells)",
    "Operator": "=",
    "pIC50": 4.95
  },
  {
    "Molecule": "C=C(C)[C@@H]1CC[C@]2(COC(=O)CC(C)(C)C(=O)OCCCCC[P+](c3ccccc3)(c3ccccc3)c3ccccc3)CC[C@]3(C)C(CCC4[C@@]5(C)CC[C@H](OC(C)=O)C(C)(C)C5CC[C@]43C)C12 (some centres unmarked)",
    "System Tested": "NHDF (Normal Human Dermal Fibroblast cells)",
    "Operator": "=",
    "pIC50": 5.00
  },
  {
    "Molecule": "C=C(C)[C@@H]1CC[C@]2(COC(=O)CCC(=O)OCCCC[P+](c3ccccc3)(c3ccccc3)c3ccccc3)CC[C@]3(C)C(CCC4[C@@]5(C)CC[C@H](OC(C)=O)C(C)(C)C5CC[C@]43C)C12 (some centres unmarked)",
    "System Tested": "NHDF (Normal Human Dermal Fibroblast cells)",
    "Operator": "=",
    "pIC50": 4.97
  },
  {
    "Molecule": "C=C(C)[C@@H]1CC[C@]2(CO)CC[C@]3(C)[C@H](CC[C@@H]4[C@@]5(C)CC[C@H](O)C(C)(C)[C@@H]5CC[C@]43C)[C@@H]12 [BN, 3-lup-20(29)-ene-3,28-diol, reference compound]",
    "System Tested": "NHDF (Normal Human Dermal Fibroblast cells)",
    "Operator": "<",
    "pIC50": 4.90
  }
]

* * *

Below: a set of entries, each annotated with reported pIC50.
- Test system: MCF-7 (human breast adenocarcinoma cell line)
- Protocol Summary: Cytotoxicity, CCK-8 cell viability assay
- Format: cell-based
- Test Conditions: MCF7, CCK-8 assay, incubation time 24 h, mean ± SD (n = 3), read-out: Activity IC50, MCF-7
pIC50: −log10 of the molar value.

[
  {
    "Compound": "C=C(C)[C@@H]1CC[C@]2(COC(=O)CCC(=O)OCCC[P+](c3ccccc3)(c3ccccc3)c3ccccc3)CC[C@]3(C)C(CCC4[C@@]5(C)CC[C@H](OC(C)=O)C(C)(C)C5CC[C@]43C)C12 (some centres unmarked) [7a]",
    "Operator": "=",
    "pIC50": 4.86
  },
  {
    "Compound": "C=C(C)[C@@H]1CC[C@]2(COC(=O)CCC(=O)OCCCCC[P+](c3ccccc3)(c3ccccc3)c3ccccc3)CC[C@]3(C)C(CCC4[C@@]5(C)CC[C@H](OC(C)=O)C(C)(C)C5CC[C@]43C)C12 (some centres unmarked) [7c]",
    "Operator": "=",
    "pIC50": 4.81
  },
  {
    "Compound": "C=C(C)[C@@H]1CC[C@]2(CO)CC[C@]3(C)[C@H](CC[C@@H]4[C@@]5(C)CC[C@H](O)C(C)(C)[C@@H]5CC[C@]43C)[C@@H]12 [BN, 3-lup-20(29)-ene-3,28-diol, reference compound]",
    "Operator": "<",
    "pIC50": 4.90
  },
  {
    "Compound": "C=C(C)[C@@H]1CC[C@]2(COC(=O)CCC(=O)OCCCC[P+](c3ccccc3)(c3ccccc3)c3ccccc3)CC[C@]3(C)C(CCC4[C@@]5(C)CC[C@H](OC(C)=O)C(C)(C)C5CC[C@]43C)C12 (some centres unmarked) [7b]",
    "Operator": "=",
    "pIC50": 4.84
  },
  {
    "Compound": "C=C(C)[C@@H]1CC[C@]2(COC(=O)CC(C)(C)C(=O)OCCCCC[P+](c3ccccc3)(c3ccccc3)c3ccccc3)CC[C@]3(C)C(CCC4[C@@]5(C)CC[C@H](OC(C)=O)C(C)(C)C5CC[C@]43C)C12 (some centres unmarked) [7f]",
    "Operator": "=",
    "pIC50": 4.30
  }
]

* * *

- Test system: S. aureus ATCC 25923
- Protocol Summary: Antibacterial assay, optical density of culture in TSB
- Type: cell-based, Staphylococcus aureus
- Test Conditions: 200 μM; 37 °C, 18 h
# Lookup of reported Difference between optical density before and after culture, S. aureus ATCC 25923 keyed by entry
Readout: Difference between optical density before and after culture, S. aureus ATCC 25923

[
  {
    "Molecule": "C=C(C)[C@@H]1CC[C@]2(COC(=O)CCC(=O)OCCCCC[P+](c3ccccc3)(c3ccccc3)c3ccccc3)CC[C@]3(C)C(CCC4[C@@]5(C)CC[C@H](OC(C)=O)C(C)(C)C5CC[C@]43C)C12 (stereo partly drawn) [7c]",
    "System Tested": "S. aureus ATCC 25923",
    "Result": "1.0 McFarland’s scale (CFU/mL)"
  },
  {
    "Molecule": "C=C(C)[C@@H]1CC[C@]2(COC(=O)CCC(=O)OCCC[P+](c3ccccc3)(c3ccccc3)c3ccccc3)CC[C@]3(C)C(CCC4[C@@]5(C)CC[C@H](OC(C)=O)C(C)(C)C5CC[C@]43C)C12 (stereo partly drawn) [7a]",
    "System Tested": "S. aureus ATCC 25923",
    "Result": "0.9 McFarland’s scale (CFU/mL)"
  },
  {
    "Molecule": "C=C(C)[C@@H]1CC[C@]2(COC(=O)CC(C)(C)C(=O)OCCCC[P+](c3ccccc3)(c3ccccc3)c3ccccc3)CC[C@]3(C)C(CCC4[C@@]5(C)CC[C@H](OC(C)=O)C(C)(C)C5CC[C@]43C)C12 (stereo partly drawn) [7e]",
    "System Tested": "S. aureus ATCC 25923",
    "Result": 0
  },
  {
    "Molecule": "C=C(C)[C@@H]1CC[C@]2(COC(=O)CCC(=O)OCCCC[P+](c3ccccc3)(c3ccccc3)c3ccccc3)CC[C@]3(C)C(CCC4[C@@]5(C)CC[C@H](OC(=O)CCC(=O)OCCCC[P+](c6ccccc6)(c6ccccc6)c6ccccc6)C(C)(C)C5CC[C@]43C)C12 (stereo partly drawn) [9b]",
    "System Tested": "S. aureus ATCC 25923",
    "Result": 0
  },
  {
    "Molecule": "C=C(C)[C@@H]1CC[C@]2(COC(=O)CCC(=O)OCCCCC[P+](c3ccccc3)(c3ccccc3)c3ccccc3)CC[C@]3(C)C(CCC4[C@@]5(C)CC[C@H](OC(=O)CCC(=O)OCCCCC[P+](c6ccccc6)(c6ccccc6)c6ccccc6)C(C)(C)C5CC[C@]43C)C12 (stereo partly drawn) [9c]",
    "System Tested": "S. aureus ATCC 25923",
    "Result": 0
  },
  {
    "Molecule": "C=C(C)[C@@H]1CC[C@]2(COC(=O)CC(C)(C)C(=O)OCCCCC[P+](c3ccccc3)(c3ccccc3)c3ccccc3)CC[C@]3(C)C(CCC4[C@@]5(C)CC[C@H](OC(C)=O)C(C)(C)C5CC[C@]43C)C12 (stereo partly drawn) [7f]",
    "System Tested": "S. aureus ATCC 25923",
    "Result": 0
  }
]

* * *

- System: HCT 116 (colorectal carcinoma cell line)
- Protocol Summary: Cytotoxicity, CCK-8 cell viability assay
- Assay type: cell-based
- Test Conditions: Homo sapiens, HCT-116; CCK-8 assay; incubation time 24 h; mean ± SD (n = 3); read-out: Activity IC50, HCT 116
- Experimental: The obtained new molecular hybrids of BN were screened in order to initially investigate their cytotoxicity as well as examine the relationships between the structure and biological effect. […] The proliferation of tumor cells treated with the tested compounds (7 and 9) at 12.5–3.125 µM concentrations were determined after 24 h of incubation. […] Half-maximal inhibitory concentrations (IC50) of triphenylphosphonium analogs of BN were determined using a CCK-8 assay and are summarized in Table 2. […]
pIC50: −log10 of the molar value.
Readout: pIC50

[
  {
    "Compound": "C=C(C)[C@@H]1CC[C@]2(COC(=O)CCC(=O)OCCC[P+](c3ccccc3)(c3ccccc3)c3ccccc3)CC[C@]3(C)C(CCC4[C@@]5(C)CC[C@H](OC(C)=O)C(C)(C)C5CC[C@]43C)C12 (some centres unmarked) [7a]",
    "Readout": "pIC50",
    "Operator": "=",
    "Number": 5.25
  },
  {
    "Compound": "C=C(C)[C@@H]1CC[C@]2(CO)CC[C@]3(C)[C@H](CC[C@@H]4[C@@]5(C)CC[C@H](O)C(C)(C)[C@@H]5CC[C@]43C)[C@@H]12 [BN, 3-lup-20(29)-ene-3,28-diol, reference compound]",
    "Readout": "pIC50",
    "Operator": "<",
    "Number": 4.90
  },
  {
    "Compound": "C=C(C)[C@@H]1CC[C@]2(COC(=O)CCC(=O)OCCCC[P+](c3ccccc3)(c3ccccc3)c3ccccc3)CC[C@]3(C)C(CCC4[C@@]5(C)CC[C@H](OC(C)=O)C(C)(C)C5CC[C@]43C)C12 (some centres unmarked) [7b]",
    "Readout": "pIC50",
    "Operator": "=",
    "Number": 5.24
  },
  {
    "Compound": "C=C(C)[C@@H]1CC[C@]2(COC(=O)CC(C)(C)C(=O)OCCCCC[P+](c3ccccc3)(c3ccccc3)c3ccccc3)CC[C@]3(C)C(CCC4[C@@]5(C)CC[C@H](OC(C)=O)C(C)(C)C5CC[C@]43C)C12 (some centres unmarked) [7f]",
    "Readout": "pIC50",
    "Operator": "=",
    "Number": 4.90
  },
  {
    "Compound": "C=C(C)[C@@H]1CC[C@]2(COC(=O)CCC(=O)OCCCCC[P+](c3ccccc3)(c3ccccc3)c3ccccc3)CC[C@]3(C)C(CCC4[C@@]5(C)CC[C@H](OC(C)=O)C(C)(C)C5CC[C@]43C)C12 (some centres unmarked) [7c]",
    "Readout": "pIC50",
    "Operator": "=",
    "Number": 5.19
  }
]

Value source: paper PMC9416257
